# Tested on: BxPC-3 pancreatic cancer cells
# assay_name: SRB cell viability assay, BxPC-3
# Assay type: cell-based
# measurement_conditions: Homo sapiens; BxPC-3, Pancreas, 48 hours; read-out: IC50 (μM) (48 hours)
Where a name gives a salt, the structure may show the parent alone.
measured_metric: IC50
# number then unit; no other words

Problem: Which value of IC50 has been reported for C=CCN(C)CCCCCCOc1ccc(C(=O)c2ccc(Br)cc2)c(F)c1 [Ro 48-8071, fumarate] in the records?
Result: 7.11 µM

----------
# Tested on: T47-D breast cancer cells
# assay_name: SRB cell viability assay, T47-D
# Assay type: cell-based
# measurement_conditions: Homo sapiens, T47D, Breast (ER+ PR+), 24 hours, read-out: IC50 (μM) (24 hours)
Where a name gives a salt, the structure may show the parent alone.
measured_metric: IC50 (µM)
Numbers only; they are read as µM.

Problem: Look at this compound and give its reported IC50. C=CCN(C)CCCCCCOc1ccc(C(=O)c2ccc(Br)cc2)c(F)c1 [Ro 48-8071, fumarate]
Result: 11.5
